Molecular target: Ephrin type-A receptor 4 (Mus musculus)
Assay: inhibitors of EphA4 binding to KYL peptide, primary screen, biochemical, colorimetric, mouse EphA4 (AID 689)
Details: EphA4-AP binding to KYL peptide, pNPP A405, at 10 µM, hits give high values
Out of some 62,000 compounds screened, about 80 (0.1%) were called active. A selection follows. Results with a measured potency or affinity are listed apart.
REPORTED PROPERTY: inhibition

{"columns": ["COMPOUND", "TEST TARGET", "inhibition"],
 "data": [
  ["Cc1c(C(=O)Nc2nccs2)sc2nc(-c3cccs3)cc(C(F)(F)F)c12", "Ephrin type-A receptor 4 (Mus musculus)", "33% (inactive)"],
  ["COc1cccc(-c2nnc3sc(-c4ccccn4)nn23)c1", "Ephrin type-A receptor 4 (Mus musculus)", "-6.2% (inactive)"],
  ["CCOC(=O)c1c(C)nc2c(c1-c1ccccc1)C(=O)c1ccccc1-2", "Ephrin type-A receptor 4 (Mus musculus)", "-4.1% (inactive)"],
  ["COc1cc(NC(=O)c2ccc(NS(=O)(=O)c3c(C)noc3C)cc2)cc(OC)c1", "Ephrin type-A receptor 4 (Mus musculus)", "-7.5% (inactive)"],
  ["Cc1ccc(C(=O)N/C(=C\\c2ccc([N+](=O)[O-])cc2)C(=O)NCCc2ccccc2)cc1", "Ephrin type-A receptor 4 (Mus musculus)", "1.8% (inactive)"]
]}

Moving on to another compound below.
# input compound: `Cc1ccc(NC(=O)/C(=C\c2ccc([N+](=O)[O-])cc2)NC(=O)c2ccccc2)cc1` ; wanted: its inhibition
-12.9% (inactive)

This collection of values is drawn from PubChem BioAssay AID689.
